Where do the numbers come from? From patent US7405205B2.

Tested on: MIA PaCa-2 pancreatic cell carcinoma
Assay: Relative colony forming efficiency after antisense treatment (Table 13)
Type: cell-based, human
Details: 0.2 μM antisense oligodeoxyribonucleotide phosphorothioate; MIA PaCa-2 cells; averages of 2-8 determinations
Strand notation (5' to 3'): a small letter for the sugar, then the base; units joined by * are phosphorothioate-linked, units joined directly phosphodiester-linked; [ ] holds rarer units or linkages, { } end groups; capitals alone tell only the bases. d = 2'-deoxy (DNA)
Each item that follows carries a reported Reduced relative colony forming efficiency, expressed as % inhibition, MIA PaCa-2.
# number only, unit % dropped from output

Study these solved cases before continuing.
> print(dat)
                                  substance  observed.result
1  TTTTAACTGGCTGTGCTGGT (DNA, all phosphorothioate, methylation of C not given here) [AS-II-1666-20]            49.72
2  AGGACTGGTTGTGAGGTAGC (DNA, all phosphorothioate, methylation of C not given here) [AS-II-1499-20]            81.17
3  TCAGCATCCAAGGTAAAAGA (DNA, all phosphorothioate, methylation of C not given here) [AS-II-1338-20]            79.17
4  CAAATGGGTTCTCTACTCTG (DNA, all phosphorothioate, methylation of C not given here) [AS-II-1217-20]            34.85
5  TGCCTCCGACCCTTCCCATT (antisense dT*dG*dC*dC*dT*dC*dC*dG*dA*dC*dC*dC*dT*dT*dC*dC*dC*dA*dT*dT) [AS-II-14-20]            47.93

Exam item: Assign Reduced relative colony forming efficiency, expressed as % inhibition, MIA PaCa-2 to the following record: ACTGCCATTGTCACTGCTAT (DNA, all phosphorothioate, methylation of C not given here) [AS-II-1581-20]
Marked response: 24.07

Exam item: Assign Reduced relative colony forming efficiency, expressed as % inhibition, MIA PaCa-2 to the following record: CsCCCsTCACsTCCsAGCsAGCsCTsT (antisense dC*dCdCdC*dTdCdAdC*dTdCdC*dAdGdC*dAdGdC*dCdT*dT) [AS-II-109-20]
Marked response: 54.24

Exam item: Assign Reduced relative colony forming efficiency, expressed as % inhibition, MIA PaCa-2 to the following record: GACATCACTCCCATCCTCTG (DNA, all phosphorothioate, methylation of C not given here) [AS-II-1302-20]
Marked response: 23.86

Exam item: Assign Reduced relative colony forming efficiency, expressed as % inhibition, MIA PaCa-2 to the following record: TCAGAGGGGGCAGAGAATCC (antisense; DNA, all phosphorothioate, methylation of C not given here) [AS-II-2044-20]
Marked response: 24.48
